biological target: codon optimized Vif SLQ144-146AAA MAPPIT prey (pMG2-VifoptSLQ), P12504; experiment: MAPPIT; details: chain shown with the change
RECORDED_METRIC: percent of parent

// query Please report the recorded percent of parent for Apobec3G-GFP MAPPIT bait (pCEL-Apobec3G-GFP), Q9HC16 R24G (protein) MKPHFRNTVERMYRDTFSYNFYNGPILSRRNTVWLCYEVKTKGPSRPPLDAKIFRGQVYSELKYHPEMRFFHWFSKWRKLHRDQEYEVTWYISWSPCTKCTRDMATFLAEDPKVTLTIFVARLYYFWDPDYQEALRSLCQKRDGPRATMKIMNYDEFQHCWSKFVYSQRELFEPWNNLPKYYILLHIMLGEILRHSMDPPTFTFNFNNEPWVRGRHETYLCYEVERMHNDTWVLLNQRRGFLCNQAPHKHGFLEGRHAELCFLDVIPFWKLDLDQDYRVTCFTSWSPCFSCAQEMAKFISKNKHVSLCIFTARIYDDQGRCQEGLRTLAEAGAKISIMTYSEFKHCWDTFVDHQGCPFQPWDGLDEHSQDLSGRLRAILQNQEN .
// result 32 % of WT
